- test.description: Neurotoxicity in ip dosed Albino Swiss CD-1 mouse assessed as minimum dose required to induce motor impairment treated 30 mins prior to test by rotarod test
- Type: toxicity, organism-based
- condition: in vivo
Listed below: TD50 at 0.5 h values for each entry.
reported.endpoint: TD50 at 0.5 h (mg/kg)

1) Cc1cc(C)c(OCCOCCN2CCN(CCc3ccccc3)CC2)c(C)c1.Cl.Cl; 53.3
2) Cc1cc(C)c(C)c(OCCOCCN2CCN(CCO)CC2)c1.Cl.Cl; 74.9
3) Cc1cccc(OCCOCCN2CCN(CCc3ccccc3)CC2)c1C.Cl.Cl; 35.5
4) Cc1cc(C)c(OCCN2CCN(CCOCCO)CC2)c(C)c1.Cl.Cl; 85.3
5) COc1ccccc1N1CCN(CCOCCOc2c(C)cc(C)cc2C)CC1.Cl.Cl; 31.5
6) COc1ccc(N2CCN(CCCOc3c(C)cc(C)cc3C)CC2)cc1.Cl.Cl; 67.9

###

- tested.on: D(2) dopamine receptor (Homo sapiens, UniProt P14416)
- Sequence (P14416 whole entry): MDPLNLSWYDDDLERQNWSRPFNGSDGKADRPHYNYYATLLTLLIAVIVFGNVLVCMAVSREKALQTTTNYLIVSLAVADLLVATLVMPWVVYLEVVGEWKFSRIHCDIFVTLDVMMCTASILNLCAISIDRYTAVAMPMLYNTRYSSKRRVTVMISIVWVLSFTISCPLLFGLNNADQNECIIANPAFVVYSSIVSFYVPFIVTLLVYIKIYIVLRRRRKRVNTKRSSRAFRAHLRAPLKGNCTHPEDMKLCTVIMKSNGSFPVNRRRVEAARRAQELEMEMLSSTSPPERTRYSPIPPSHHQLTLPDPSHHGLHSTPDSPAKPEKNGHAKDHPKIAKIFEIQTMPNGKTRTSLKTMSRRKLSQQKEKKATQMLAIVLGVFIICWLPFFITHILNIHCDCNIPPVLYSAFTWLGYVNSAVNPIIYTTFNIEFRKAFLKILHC
- test.description: Antagonist activity at human D2 receptor expressed in CHO-K1 cells co-expressing Galphaqi5 assessed as decrease in apomorphine-induced calcium mobilization preincubated for 30 mins followed by apomorphine challenge measured for 30 secs by aequorin-derived luminescence assay
reported.endpoint: IC50 (nM)

1. COc1ccccc1N1CCN(CCOCCOc2c(C)cc(C)cc2C)CC1.Cl.Cl; 82
2. COc1ccccc1N1CCN(CCCOc2ccc(C)cc2C)CC1.Cl; 17.7
3. COc1ccccc1N1CCN(CCOCCOc2cc(C)cc(C)c2C)CC1.Cl.Cl; 78.5

###

- tested.on: D(2) dopamine receptor (Homo sapiens)
- test.description: Displacement of [3H]methylspiperonee from recombinant human D2 receptor expressed in HEK293 cells cell membranes after 60 mins by liquid scintillation counting method
reported.endpoint: log10 Ki (log10 of the value in nM)

1. COc1ccccc1N1CCN(CCOCCOc2c(C)cc(C)cc2C)CC1.Cl.Cl; 2.28
2. Cc1cccc(OCCOCCN2CCN(CCc3ccccc3)CC2)c1C.Cl.Cl; 3.08
3. COc1ccccc1N1CCN(CCOCCOc2cc(C)cc(C)c2C)CC1.Cl.Cl; 2.21
4. Cc1cc(OCCCN2CCN(c3ccccc3)CC2)ccc1Cl.Cl.Cl; 2.48
5. COc1ccccc1N1CCN(CCCOc2ccc(C)cc2C)CC1.Cl; 1.99
6. COc1ccc(N2CCN(CCCOc3c(C)cc(C)cc3C)CC2)cc1.Cl.Cl; 3.70

###

- tested.on: 5-hydroxytryptamine receptor 2A (Homo sapiens)
- Sequence (P28223 whole entry): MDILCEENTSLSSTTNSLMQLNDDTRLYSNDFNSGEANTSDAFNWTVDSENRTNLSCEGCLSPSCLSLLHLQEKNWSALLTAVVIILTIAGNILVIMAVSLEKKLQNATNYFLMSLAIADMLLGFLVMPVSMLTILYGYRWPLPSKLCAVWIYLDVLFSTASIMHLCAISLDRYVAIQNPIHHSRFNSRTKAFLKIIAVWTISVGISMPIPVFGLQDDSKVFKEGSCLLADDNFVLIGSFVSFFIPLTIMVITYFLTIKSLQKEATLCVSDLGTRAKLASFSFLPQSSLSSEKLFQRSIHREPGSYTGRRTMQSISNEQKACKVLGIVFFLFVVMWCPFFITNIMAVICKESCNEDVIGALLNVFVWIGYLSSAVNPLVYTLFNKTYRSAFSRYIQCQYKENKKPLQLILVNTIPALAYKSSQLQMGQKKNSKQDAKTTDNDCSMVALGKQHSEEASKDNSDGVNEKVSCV
- test.description: biochemical
- Format: cell-based, HEK293
- Description: Displacement of [3H]ketanserin from recombinant human 5-HT2A receptor expressed in HEK293 cell membranes after 60 mins by liquid scintillation counting method
pKi: −log10 of the molar value.
Listed below: pKi values for each entry.
reported.endpoint: pKi

1) Cc1cc(C)c(OCCOCCN2CCN(Cc3ccccc3)CC2)c(C)c1.Cl.Cl; 6.30
2) COc1ccc(N2CCN(CCCOc3c(C)cc(C)cc3C)CC2)cc1.Cl.Cl; 6.11
3) COc1ccccc1N1CCN(CCCOc2ccc(C)cc2C)CC1.Cl; 6.28
4) COc1ccccc1N1CCN(CCOCCOc2c(C)cc(C)cc2C)CC1.Cl.Cl; 6.61

###

- tested.on: D(2) dopamine receptor (Homo sapiens, UniProt P14416)
- test.description: Agonist activity at human D2 receptor expressed in CHO-K1 cells co-expressing Galphaqi5 assessed as increase in calcium mobilization measured for 30 secs by aequorin-derived luminescence assay
reported.endpoint: EC50

1) Cc1cc(OCCCN2CCN(c3ccccc3)CC2)ccc1Cl.Cl.Cl; 757 nM

Cited source for all entries: ChEMBL document CHEMBL4190389
